# assay remarks: Inhibition of HCV NS5B J4 delta 21 polymerase
# Parameters: species or system Hepacivirus hominis
assay readout: IC50 (nM)

Illustrative cases are given below, each with its answer.
# compound, IC50 [nM]
data = [
    ("CC(C)C[C@@]1(C(=O)O)C[C@H](C(=O)NS(=O)(=O)C(F)(F)F)[C@H](c2cccs2)N1C(=O)c1ccc(C(F)(F)F)cc1", 200),
    ("CC(C)C[C@@]1(C(=O)O)C[C@H](C(=O)O)[C@H](c2cccs2)N1C(=O)c1ccc(C(F)(F)F)cc1 (stereo in doubt; (+)-1)", 300),
    ("CC(C)C[C@@]1(C(=O)O)C[C@H](C(=O)Nc2ccccc2)[C@H](c2nccs2)N1C(=O)c1ccc(C(C)(C)C)cc1 (stereo in doubt; 41)", 160),
    ("CC(C)C[C@@]1(C(=O)O)C[C@H](C(=O)O)[C@H](c2nccs2)N1C(=O)c1ccc(C(C)(C)C)cc1 (stereo in doubt; (-)28)", 2360),
    ("CC(C)C[C@@]1(C(=O)O)C[C@H](C(N)=O)[C@H](c2cccs2)N1C(=O)c1ccc(C(F)(F)F)cc1 (stereo in doubt; (+)29)", 2230),
]

(A) CC(C)C[C@@]1(C(=O)O)C[C@H](C(=O)O)[C@H](c2nccs2)N1C(=O)c1ccc(C(C)(C)C)cc1 (stereo in doubt; 28)
(B) CC(C)C[C@@]1(C(=O)O)C[C@H](C(=O)NS(C)(=O)=O)[C@H](c2nccs2)N1C(=O)c1ccc(C(F)(F)F)cc1
(C) CC(C)C[C@@]1(C(N)=O)C[C@H](C(=O)O)[C@H](c2cccs2)N1C(=O)c1ccc(C(F)(F)F)cc1
(D) CC(C)C[C@@]1(C(=O)O)C[C@H](C(N)=O)[C@H](c2nccs2)N1C(=O)c1ccc(C(F)(F)F)cc1
Order the records, beginning with the lowest IC50 and ending with the highest. // respond by listing labels in the order requested
A, B, D, C
(A: 70 nM, B: 410 nM, D: 2050 nM, C: 8100 nM)

---

# assay remarks: Permeability across artificial membrane by PAMPA assay
# Format: ADME
# particulars: read-out: permeability
assay readout: Papp

Item CC(C)C[C@@]1(C(=O)O)C[C@H](C(=O)NS(C)(=O)=O)[C@H](c2nccs2)N1C(=O)c1ccc(C(C)(C)C)cc1 has what recorded Papp?
< 0.03 ×10⁻⁶ cm/s

---

# assay remarks: Inhibition of HCV NS5B RB01 polymerase
# Set-up: species or system Hepacivirus hominis
assay readout: IC50 (µM)

Illustrative cases are given below, each with its answer.
# molecule, assay readout, endpoint result
records = [
    ("CC(C)C[C@@]1(C(=O)O)C[C@H](C(=O)NCc2ccccc2)[C@H](c2nccs2)N1C(=O)c1ccc(C(C)(C)C)cc1", "IC50", 68),
    ("CC(C)C[C@@]1(C(=O)O)C[C@H](C(=O)NS(=O)(=O)Cc2ccccc2)[C@H](c2nccs2)N1C(=O)c1ccc(C(C)(C)C)cc1", "IC50", 4.23),
    ("CC(C)C[C@@]1(C(=O)O)C[C@H](C(N)=O)[C@H](c2nccs2)N1C(=O)c1ccc(C(C)(C)C)cc1 (stereo in doubt; (+)32)", "IC50", 3.8),
    ("CC(C)C[C@@]1(C(=O)O)C[C@H](C(N)=O)[C@H](c2nccs2)N1C(=O)c1ccc(C(C)(C)C)cc1 (stereo in doubt; 32)", "IC50", 4.4),
    ("CC(C)C[C@@]1(C(=O)O)C[C@H](C(=O)Nc2ccccc2)[C@H](c2nccs2)N1C(=O)c1ccc(C(C)(C)C)cc1 (stereo in doubt; (+)41)", "IC50", 0.5),
]

(P) CC(C)C[C@@]1(C(=O)O)C[C@H](C(=O)O)[C@H](c2nccs2)N1C(=O)c1ccc(C(C)(C)C)cc1 (stereo in doubt; (+)28)
(Q) CNC(=O)[C@H]1C[C@@](CC(C)C)(C(=O)O)N(C(=O)c2ccc(C(C)(C)C)cc2)[C@H]1c1nccs1
Look at P and Q . Which one has the lower recorded IC50 number? Answer by quoting the chosen item's label.
P
